# Experiment Notes: total protein half-life in vivo (active degradation + dilution); higher = more stable protein
# Reported Conditions: E. coli NCM3722 delta-clpP; growth: N-lim chemostat; doubling time 6 h
Assay Readout: total protein half-life in vivo

sequence_code="MRNLVKYVGIGLLVMGLAACDDKDTNATAQGSVAESNATGNPVNLLDGKLSFSLPADMTDQSGKLGTQANNMHVWSDATGQKAVIVIMGDDPKEDLAVLAKRLEDQQRSRDPQLQVVTNKAIELKGHKMQQLDSIISAKGQTAYSSVILGNVGNQLLTMQITLPADDQQKAQTTAENIINTLVIQ [P0AEE1]" assay_readout="total protein half-life in vivo" obs_value="5.96 h"
sequence_code="MFNSDNLRLDGKCAIITGAGAGIGKEIAITFATAGASVVVSDINADAANHVVDEIQQLGGQAFACRCDITSEQELSALADFAISKLGKVDILVNNAGGGGPKPFDMPMADFRRAYELNVFSFFHLSQLVAPEMEKNGGGVILTITSMAAENKNINMTSYASSKAAASHLVRNMAFDLGEKNIRVNGIAPGAILTDALKSVITPEIEQKMLQHTPIRRLGQPQDIANAALFLCSPAASWVSGQILTVSGGGVQELN [P0AET8]" assay_readout="total protein half-life in vivo" obs_value="4.39 h"
sequence_code="MKHTVEVMIPEAEIKARIAELGRQITERYKDSGSDMVLVGLLRGSFMFMADLCREVQVSHEVDFMTASSYGSGMSTTRDVKILKDLDEDIRGKDVLIVEDIIDSGNTLSKVREILSLREPKSLAICTLLDKPSRREVNVPVEFIGFSIPDEFVVGYGIDYAQRYRHLPYIGKVILLDE [P0A9M2]" assay_readout="total protein half-life in vivo" obs_value="4.53 h"
sequence_code=MQNITQSWFVQGMIKATTDAWLKGWDERNGGNLTLRLDDADIAPYHDNFHQQPRYIPLSQPMPLLANTPFIVTGSGKFFRNVQLDPAANLGIVKVDSDGAGYHILWGLTNEAVPTSELPAHFLSHCERIKATNGKDRVIMHCHATNLIALTYVLENDTAVFTRQLWEGSTECLVVFPDGVGILPWMVPGTDEIGQATAQEMQKHSLVLWPFHGVFGSGPTLDETFGLIDTAEKSAQVLVKVYSMGGMKQTISREELIALGKRFGVTPLASALAL assay_readout="total protein half-life in vivo" obs_value="2.62 h"
sequence_code="MKTLGEFIVEKQHEFSHATGELTALLSAIKLGAKIIHRDINKAGLVDILGASGAENVQGEVQQKLDLFANEKLKAALKARDIVAGIASEEEDEIVVFEGCEHAKYVVLMDPLDGSSNIDVNVSVGTIFSIYRRVTPVGTPVTEEDFLQPGNKQVAAGYVVYGSSTMLVYTTGCGVHAFTYDPSLGVFCLCQERMRFPEKGKTYSINEGNYIKFPNGVKKYIKFCQEEDKSTNRPYTSRYIGSLVADFHRNLLKGGIYLYPSTASHPDGKLRLLYECNPMAFLAEQAGGKASDGKERILDIIPETLHQRRSFFVGNDHMVEDVERFIREFPDA [P0A993]" assay_readout="total protein half-life in vivo" obs_value="3.02 h"
sequence_code=MTMYATLEEAIDAAREEFLADNPGIDAEDANVQQFNAQKYVLQDGDIMWQVEFFADEGEEGECLPMLSGEAAQSVFDGDYDEIEIRQEWQEENTLHEWDEGEFQLEPPLDTEEGRAAADEWDER assay_readout="total protein half-life in vivo" obs_value="6.11 h"
sequence_code="MLKRFFITGTDTSVGKTVVSRALLQALASQGKTVAGYKPVAKGSKETPEGLRNKDALVLQSVSTIELPYEAVNPIALSEEESSVAHSCPINYTLISNGLANLTEKVDHVVVEGTGGWRSLMNDLRPLSEWVVQEQLPVLMVVGIQEGCINHALLTAQAIANDGLPLIGWVANRINPGLAHYAEIIDVLGKKLPAPLIGELPYLPRAEQRELGQYIRLAMLRSVLAVDRVTV [P0A6E9]" assay_readout="total protein half-life in vivo" obs_value="5.16 h"
sequence_code="MDTELLKTFLEVSRTRHFGRAAESLYLTQSAVSFRIRQLENQLGVNLFTRHRNNIRLTAAGEKLLPYAETLMSTWQAARKEVAHTSRHNEFSIGASASLWECMLNQWLGRLYQNQDAHTGLQFEARIAQRQSLVKQLHERQLDLLITTEAPKMDEFSSQLLGYFTLALYTSAPSKLKGDLNYLRLEWGPDFQQHEAGLIGADEVPILTTSSAELAQQQIAMLNGCTWLPVSWARKKGGLHTVVDSTTLSRPLYAIWLQNSDKNALIRDLLKINVLDEVY [P0A8R9]" assay_readout="total protein half-life in vivo" obs_value="4.82 h"
sequence_code="MSNITIYHNPACGTSRNTLEMIRNSGTEPTIIHYLETPPTRDELVKLIADMGISVRALLRKNVEPYEELGLAEDKFTDDRLIDFMLQHPILINRPIVVTPLGTRLCRPSEVVLEILPDAQKGAFSKEDGEKVVDEAGKRLK [P0AB96]" assay_readout="total protein half-life in vivo" obs_value="5.24 h"
sequence_code=MYQVVASDLDGTLLSPDHTLSPYAKETLKLLTARGINFVFATGRHHVDVGQIRDNLEIKSYMITSNGARVHDLDGNLIFAHNLDRDIASDLFGVVNDNPDIITNVYRDDEWFMNRHRPEEMRFFKEAVFQYALYEPGLLEPEGVSKVFFTCDSHEQLLPLEQAINARWGDRVNVSFSTLTCLEVMAGGVSKGHALEAVAKKLGYSLKDCIAFGDGMNDAEMLSMAGKGCIMGSAHQRLKDLHPELEVIGTNADDAVPHYLRKLYLS assay_readout="total protein half-life in vivo" obs_value="2.94 h"
sequence_code=MSNWPYPRIVAHRGGGKLAPENTLASIDVGAKYGHKMIEFDAKLSKDGEIFLLHDDNLERTSNGWGVAGELNWQDLLRVDAGSWYSKMFKGEPLPLLSQVAERCREHGMMANIEIKPTTGTGPLTGKMVALAARELWAGMTPPLLSSFEIDALEAAQQAAPELPRGLLLDEWRDDWRELTARLGCVSIHLNHKLLNKARVMQLKDAGLRILVYTVNKPQRAAELLRWGVDCICTDAIDVIGPNFTAQ assay_readout="total protein half-life in vivo" obs_value="3.75 h"
sequence_code="MNTISSLETTDLPAAYHIEQRAHAFPWSEKTFASNQGERYLNFQLTQNGKMAAFAITQVVLDEATLFNIAVDPDYQRQGLGRALLEHLIDELEKRGVATLWLEVRASNAAAIALYESLGFNEATIRRNYYPTTDGREDAIIMALPISM [P0A944]" assay_readout="total protein half-life in vivo" obs_value="4.51 h"
sequence_code=MHVTLVEINVHEDKVDEFIEVFRQNHLGSVQEEGNLRFDVLQDPEVNSRFYIYEAYKDEDAVAFHKTTPHYKTCVAKLESLMTGPRKKRLFNGLMP assay_readout="total protein half-life in vivo" obs_value="2.71 h"
sequence_code="MSESVQSNSAVLVHFTLKLDDGTTAESTRNNGKPALFRLGDASLSEGLEQHLLGLKVGDKTTFSLEPDAAFGVPSPDLIQYFSRREFMDAGEPEIGAIMLFTAMDGSEMPGVIREINGDSITVDFNHPLAGQTVHFDIEVLEIDPALEA [P0AEM0]" assay_readout="total protein half-life in vivo" obs_value="4.79 h"

* * *

# Experiment Notes: total protein half-life in vivo (active degradation + dilution); higher = more stable protein
# Reported Conditions: E. coli NCM3722 delta-hslV; growth: N-lim chemostat; doubling time 6 h
Given measured total protein half-life in vivo, output Fulfilled if it is greater than or equal to 4 h and Not fulfilled if not.

sequence_code="MPKFRVSLFSLALMLAVPFAPQAVAKTAAATTASQPEIASGSAMIVDLNTNKVIYSNHPDLVRPIASISKLMTAMVVLDARLPLDEKLKVDISQTPEMKGVYSRVRLNSEISRKDMLLLALMSSENRAAASLAHHYPGGYKAFIKAMNAKAKSLGMNNTRFVEPTGLSVHNVSTARDLTKLLIASKQYPLIGQLSTTREDMATFSNPTYTLPFRNTNHLVYRDNWNIQLTKTGFTNAAGHCLVMRTVINNKPVALVVMDAFGKYTHFADASRLRTWIETGKVMPVPAAALSYKKQKAAQMAAAGQTAQND [P0AFI5]" group="Not fulfilled"
sequence_code=MSHVELQPGFDFQQAGKEVLAIERECLAELDQYINQNFTLACEKMFWCKGKVVVMGMGKSGHIGRKMAATFASTGTPSFFVHPGEAAHGDLGMVTPQDVVIAISNSGESSEITALIPVLKRLHVPLICITGRPESSMARAADVHLCVKVAKEACPLGLAPTSSTTATLVMGDALAVALLKARGFTAEDFALSHPGGALGRKLLLRVNDIMHTGDEIPHVKKTASLRDALLEVTRKNLGMTVICDDNMMIEGIFTDGDLRRVFDMGVDVRQLSIADVMTPGGIRVRPGILAVEALNLMQSRHITSVMVADGDHLLGVLHMHDLLRAGVV group=Fulfilled
sequence_code=MPALDLIRPSVTAMRVIASVNADFARELKLPPHIRSLGLISADSDDVTYIAADEATKQAMVEVVYGRSLYAGAAHGPSPTAGEVLIMLGGPNPAEVRAGLDAMIAHIENGAAFQWANDAQDTAFLAHVVSRTGSYLSSTAGITLGDPMAYLVAPPLEATYGIDAALKSADVQLATYVPPPSETNYSAAFLTGSQAACKAACNAFTDAVLEIARNPIQRA group=Fulfilled
sequence_code=MKVLVTGATSGLGRNAVEFLCQKGISVRATGRNEAMGKLLEKMGAEFVPADLTELVSSQAKVMLAGIDTLWHCSSFTSPWGTQQAFDLANVRATRRLGEWAVAWGVRNFIHISSPSLYFDYHHHRDIKEDFRPHRFANEFARSKAASEEVINMLSQANPQTRFTILRPQSLFGPHDKVFIPRLAHMMHHYGSILLPHGGSALVDMTYYENAVHAMWLASQEACDKLPSGRVYNITNGEHRTLRSIVQKLIDELNIDCRIRSVPYPMLDMIARSMERLGRKSAKEPPLTHYGVSKLNFDFTLDITRAQEELGYQPVITLDEGIEKTAAWLRDHGKLPR group=Fulfilled
sequence_code=MVAPIPAKRGRKPAVATAPATGQVQSLTRGLKLLEWIAESNGSVALTELAQQAGLPNSTTHRLLTTMQQQGFVRQVGELGHWAIGAHAFMVGSSFLQSRNLLAIVHPILRNLMEESGETVNMAVLDQSDHEAIIIDQVQCTHLMRMSAPIGGKLPMHASGAGKAFLAQLSEEQVTKLLHRKGLHAYTHATLVSPVHLKEDLAQTRKRGYSFDDEEHALGLRCLAACIFDEHREPFAAISISGPISRITDDRVTEFGAMVIKAAKEVTLAYGGMR group=Fulfilled
